EXPERIMENTAL PROTOCOL: Growth inhibition of human HeLaS3 cells
Format: functional
CONDITIONS USED: HeLa S3
Lab note: anything with GI50 below 200 nM is marked Fulfilled; values at 200 nM or higher are marked Not fulfilled.

>  <COMPOUND>
CC[C@H](CO)Nc1nc(NCc2ccccc2)c2ncn(C(C)C)c2n1 [SELICICLIB]

>  <CLASS>
Not fulfilled

$$$$
>  <COMPOUND>
COc1cccc(-c2ccc(CNc3nc(N[C@H]4CC[C@H](N)CC4)nc4c3ncn4C(C)C)s2)c1

>  <CLASS>
Fulfilled

$$$$
>  <COMPOUND>
CC(C)n1cnc2c(NCc3ccc(-c4ccc(Cl)s4)cc3)nc(N[C@H]3CC[C@H](N)CC3)nc21

>  <CLASS>
Not fulfilled

$$$$
>  <COMPOUND>
Cc1csc(-c2ccc(CNc3nc(N[C@H]4CC[C@H](N)CC4)nc4c3ncn4C(C)C)s2)n1

>  <CLASS>
Fulfilled

$$$$
>  <COMPOUND>
CC(C)n1cnc2c(NCc3ccc(-c4cccc(F)c4)nc3)nc(N[C@H]3CC[C@H](N)CC3)nc21

>  <CLASS>
Fulfilled

$$$$
>  <COMPOUND>
Cc1csc(-c2ccc(CNc3nc(N[C@H]4CC[C@H](N)CC4)nc4c3ncn4C(C)C)cc2)c1

>  <CLASS>
Not fulfilled

$$$$
>  <COMPOUND>
CC(C)n1cnc2c(NCc3ccc(-c4ccsc4)cc3)nc(N[C@H]3CC[C@H](N)CC3)nc21

>  <CLASS>
Fulfilled

$$$$
>  <COMPOUND>
CC(C)n1cnc2c(NCc3ccc(-c4ccc(F)cc4)s3)nc(N[C@H]3CC[C@H](N)CC3)nc21

>  <CLASS>
Not fulfilled

$$$$

* * *

TARGET: Cyclin-dependent kinase 2/cyclin E (Homo sapiens, UniProt P24941)
EXPERIMENTAL PROTOCOL: Inhibition of Cdk2/cyclinE
Response field label takes Criterion met when IC50 is strictly below 100 nM and Criterion not met in all other cases.

>  <STRUCTURE AS SMILES>
CC(C)n1cnc2c(NCc3ccc(-c4ccccn4)nc3)nc(N[C@H]3CC[C@H](N)CC3)nc21

>  <CLASS>
Criterion met

$$$$
>  <STRUCTURE AS SMILES>
CC(C)n1cnc2c(NCc3ccc(-c4ccc(Cl)s4)cc3)nc(N[C@H]3CC[C@H](N)CC3)nc21

>  <CLASS>
Criterion not met

$$$$
>  <STRUCTURE AS SMILES>
CC(C)n1cnc2c(NCc3coc(-c4ccccc4)c3)nc(N[C@H]3CC[C@H](N)CC3)nc21

>  <CLASS>
Criterion not met

$$$$
>  <STRUCTURE AS SMILES>
CC(C)n1cnc2c(NCc3ccc(-c4ccco4)cc3)nc(N[C@H]3CC[C@H](N)CC3)nc21

>  <CLASS>
Criterion met

$$$$
>  <STRUCTURE AS SMILES>
CC(C)n1cnc2c(NCc3ccc(-c4ccccc4F)s3)nc(N[C@H]3CC[C@H](N)CC3)nc21

>  <CLASS>
Criterion met

$$$$

* * *

# maps each entry to its log10 GI50
EXPERIMENTAL PROTOCOL: Growth inhibition of human HeLaS3 cells
Format: functional
CONDITIONS USED: HeLa S3
QUANTITY: log10 GI50 (log10 of the value in µM)

>  <STRUCTURE AS SMILES>
CC(C)n1cnc2c(NCc3csc(-c4ccccc4)n3)nc(N[C@H]3CC[C@H](N)CC3)nc21

>  <log10 GI50>
0.60

$$$$
>  <STRUCTURE AS SMILES>
CC(C)n1cnc2c(NCc3ccc(-c4ccccc4)cn3)nc(N[C@H]3CC[C@H](N)CC3)nc21

>  <log10 GI50>
-0.30

$$$$
>  <STRUCTURE AS SMILES>
CC(C)n1cnc2c(NCc3ccc(-c4ccco4)s3)nc(N[C@H]3CC[C@H](N)CC3)nc21

>  <log10 GI50>
-0.52

$$$$
>  <STRUCTURE AS SMILES>
CC(C)n1cnc2c(NCc3ccc(-c4cccc(F)c4)s3)nc(N[C@H]3CC[C@H](N)CC3)nc21

>  <log10 GI50>
-0.72

$$$$
>  <STRUCTURE AS SMILES>
CC(C)n1cnc2c(NCc3ccc(-n4cccn4)nc3)nc(N[C@H]3CC[C@H](N)CC3)nc21

>  <log10 GI50>
-1.70

$$$$
>  <STRUCTURE AS SMILES>
Cc1ccc(-c2ccc(CNc3nc(N[C@H]4CC[C@H](N)CC4)nc4c3ncn4C(C)C)cc2)s1

>  <log10 GI50>
-0.40

$$$$
>  <STRUCTURE AS SMILES>
CC(C)n1cnc2c(NCc3ccc(-c4cccs4)s3)nc(N[C@H]3CC[C@H](N)CC3)nc21

>  <log10 GI50>
-0.52

$$$$
>  <STRUCTURE AS SMILES>
CC(C)n1cnc2c(NCc3ccc(-c4ccccn4)cc3)nc(N[C@H]3CC[C@H](N)CC3)nc21

>  <log10 GI50>
-1.36

$$$$
